Source of measurements: ChEMBL document CHEMBL1208746

# Subject of test: Metabotropic glutamate receptor 5 (Rattus norvegicus) (UniProt P31424)
# Sequence (P31424 21-1203 limits assumed): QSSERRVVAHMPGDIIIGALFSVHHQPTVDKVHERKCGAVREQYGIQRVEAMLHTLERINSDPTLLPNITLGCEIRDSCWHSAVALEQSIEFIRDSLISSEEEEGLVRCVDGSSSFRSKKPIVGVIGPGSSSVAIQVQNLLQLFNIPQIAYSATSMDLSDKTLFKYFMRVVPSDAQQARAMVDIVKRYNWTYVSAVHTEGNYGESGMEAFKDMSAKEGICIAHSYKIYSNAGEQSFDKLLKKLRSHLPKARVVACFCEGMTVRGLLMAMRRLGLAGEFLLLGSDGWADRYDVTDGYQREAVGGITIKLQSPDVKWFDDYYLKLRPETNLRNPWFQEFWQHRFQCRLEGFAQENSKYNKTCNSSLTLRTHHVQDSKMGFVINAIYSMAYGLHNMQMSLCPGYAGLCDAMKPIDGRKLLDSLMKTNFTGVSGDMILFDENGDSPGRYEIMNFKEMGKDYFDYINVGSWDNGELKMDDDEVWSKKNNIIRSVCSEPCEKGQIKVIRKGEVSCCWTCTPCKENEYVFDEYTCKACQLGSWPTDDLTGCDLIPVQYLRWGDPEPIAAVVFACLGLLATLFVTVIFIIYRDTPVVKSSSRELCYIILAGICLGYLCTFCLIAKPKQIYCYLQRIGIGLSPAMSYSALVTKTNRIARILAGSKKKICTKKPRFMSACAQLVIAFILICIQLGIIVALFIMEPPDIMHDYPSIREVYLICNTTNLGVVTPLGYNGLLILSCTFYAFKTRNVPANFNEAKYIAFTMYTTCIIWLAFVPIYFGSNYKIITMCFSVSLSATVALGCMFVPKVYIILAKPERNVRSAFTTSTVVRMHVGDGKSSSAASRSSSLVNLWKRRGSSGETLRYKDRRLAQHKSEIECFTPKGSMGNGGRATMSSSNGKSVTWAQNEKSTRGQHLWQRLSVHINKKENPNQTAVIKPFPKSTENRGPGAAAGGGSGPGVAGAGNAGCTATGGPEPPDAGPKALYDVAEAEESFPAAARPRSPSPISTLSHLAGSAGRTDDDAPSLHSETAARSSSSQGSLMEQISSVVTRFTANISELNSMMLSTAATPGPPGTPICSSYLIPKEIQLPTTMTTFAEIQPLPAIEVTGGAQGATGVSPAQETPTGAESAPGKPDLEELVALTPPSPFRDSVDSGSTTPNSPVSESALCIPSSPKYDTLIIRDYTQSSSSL
# Measurement description: Antagonist activity at rat mGlu5 receptor expressed in HEK293A cells assessed as inhibition of glutamate-induced calcium mobilization at 30 uM relative to glutamate
# Format: functional, cell-based
# Test context: HEK293-A
Under this convention, T denotes %max strictly below 2% and F denotes %max at or above 2%.

Illustrative cases are given below, each with its answer.
Compound: CC(C)(C)c1csc(NC(=O)c2cc(F)cc(C#N)c2)n1
Subject of test: Metabotropic glutamate receptor 5 (Rattus norvegicus) (UniProt P31424)
Group: F
--
Compound: C#Cc1cccc(NC(=O)c2cc(F)cc(C#N)c2)c1
Subject of test: Metabotropic glutamate receptor 5 (Rattus norvegicus) (UniProt P31424)
Group: F
--
Compound: N#Cc1cc(F)cc(C(=O)Nc2cccc(C(F)(F)F)n2)c1
Subject of test: Metabotropic glutamate receptor 5 (Rattus norvegicus) (UniProt P31424)
Group: F
--
Compound: Cc1cccc(NC(=O)c2cc(F)cc(C#N)c2)c1
Subject of test: Metabotropic glutamate receptor 5 (Rattus norvegicus) (UniProt P31424)
Group: F
--
Compound: N#Cc1cc(F)cc(C(=O)Nc2cccc(Cl)c2)c1
Subject of test: Metabotropic glutamate receptor 5 (Rattus norvegicus) (UniProt P31424)
Group: T

Prompt: Lab note: %max threshold 2%. Does this compound come in strictly under it? Cn1ccc(NC(=O)c2cc(F)cc(C#N)c2)n1
Completion: F

Prompt: Lab note: %max threshold 2%. Does this compound come in strictly under it? COc1cccc(NC(=O)c2cc(F)cc(C#N)c2)c1
Completion: F

Prompt: Lab note: %max threshold 2%. Does this compound come in strictly under it? N#Cc1cc(F)cc(C(=O)Nc2cccc(C(F)(F)F)c2)c1
Completion: T

Prompt: Lab note: %max threshold 2%. Does this compound come in strictly under it? N#Cc1cc(F)cc(C(=O)NC2C3CC4CC(C3)CC2C4)c1 (stereo unspecified)
Completion: F

Prompt: Lab note: %max threshold 2%. Does this compound come in strictly under it? Cc1cccc(NC(=O)c2cc(F)cc(C#N)c2)n1
Completion: T

Prompt: Lab note: %max threshold 2%. Does this compound come in strictly under it? N#Cc1cc(F)cc(C(=O)Nc2ccccn2)c1
Completion: F

----------
# Measurement description: Metabolic stability in rat liver microsomes assessed as compound remaining at 1 uM after 15 mins in presence of NADPH
# Type: ADME, Microsome
# Test context: read-out: Stability
Quantity kind: remaining at 0.25 h, 1 µM (%)
The response must be a number in % with no trailing unit.

Some solved entries appear below for comparison.
Chemical structure: N#Cc1cc(F)cc(C(=O)Nc2cccc(Cl)c2)c1
Unit annotation: %
remaining at 0.25 h, 1 µM: 96.8
--
Chemical structure: Cc1cccc(NC(=O)c2cc(F)cc(C#N)c2)c1
Unit annotation: %
remaining at 0.25 h, 1 µM: 69.7
--
Chemical structure: Cc1csc(NC(=O)c2cc(F)cc(C#N)c2)n1
Unit annotation: %
remaining at 0.25 h, 1 µM: 89.9

Now let's try a different one.
Prompt: Provide measured remaining at 0.25 h, 1 µM value, entry: Cc1cccc(NC(=O)c2cc(F)cc(C#N)c2)n1
Completion: 46.5

----------
# Subject of test: Metabotropic glutamate receptor 4 (Homo sapiens)
# Measurement description: Inhibition of mGlu4 receptor at 10 uM
Activity calls are given as the source filed them. The calls are words filed in the database; no cut-off is given here.
Quantity kind: inhibition

Chemical structure: N#Cc1cc(F)cc(C(=O)Nc2cccc(Cl)c2)c1
Observed result: inactive
--
Chemical structure: Cc1csc(NC(=O)c2cc(F)cc(C#N)c2)n1
Observed result: inactive
--
Chemical structure: Cc1cccc(NC(=O)c2cc(F)cc(C#N)c2)c1
Observed result: inactive
--
Chemical structure: Cc1cccc(NC(=O)c2cc(F)cc(C#N)c2)n1
Observed result: inactive

----------
# Measurement description: Ratio of drug level brain to plasma in Sprague-Dawley rat at 10 mg/kg, ip
# Assay type: ADME, organism-based
# Parameters: dose 10 mg/kg, route intraperitoneal
# Test context: brain and plasma
Quantity kind: Kp
// return a plain number; no unit text

Chemical structure: N#Cc1cc(F)cc(C(=O)Nc2cccc(Cl)c2)c1
Kp: 1.4

Now let's try a different one.
Prompt: Provide measured Kp value, entry: Cc1csc(NC(=O)c2cc(F)cc(C#N)c2)n1
Completion: 4.1

----------
# Subject of test: Metabotropic glutamate receptor 5 (Rattus norvegicus)
# Measurement description: Antagonist activity at rat mGlu5 receptor expressed in HEK293A cells assessed as inhibition of glutamate-induced calcium mobilization at 30 uM relative to glutamate
# Assay type: functional, cell-based
# Test context: HEK293-A
Quantity kind: %max (%)
The response must be a number in % with no trailing unit.

Some solved entries appear below for comparison.
Chemical structure: N#Cc1cccc(NC(=O)c2cc(F)cc(C#N)c2)c1
Quantity kind: %max
Observed result: 1.4
--
Chemical structure: N#Cc1cc(F)cc(C(=O)Nc2cccc(F)c2)c1
Quantity kind: %max
Observed result: 22.1
--
Chemical structure: N#Cc1cc(F)cc(C(=O)Nc2ccc(F)cc2)c1
Quantity kind: %max
Observed result: 69.2
--
Chemical structure: N#Cc1cc(F)cc(C(=O)Nc2cc(Cl)ccc2F)c1
Quantity kind: %max
Observed result: 29.8
--
Chemical structure: COc1cccc(NC(=O)c2cc(F)cc(C#N)c2)n1
Quantity kind: %max
Observed result: 17.3

Now let's try a different one.
Prompt: Provide measured %max value, entry: Cc1cnc(NC(=O)c2cc(F)cc(C#N)c2)s1
Completion: 17.5

----------
# System: Plasma
# Measurement description: Protein binding in rat plasma by rapid equilibrium dialysis method
# Format: ADME, cell-free
Quantity kind: PPB (%)
The response must be a number in % with no trailing unit.

Chemical structure: Cc1cccc(NC(=O)c2cc(F)cc(C#N)c2)c1
Quantity kind: PPB
Observed result: 95.3

Chemical structure: N#Cc1cc(F)cc(C(=O)Nc2cccc(Cl)c2)c1
Quantity kind: PPB
Observed result: 93.7

Chemical structure: Cc1cccc(NC(=O)c2cc(F)cc(C#N)c2)n1
Quantity kind: PPB
Observed result: 84

Now let's try a different one.
Prompt: Provide measured PPB value, entry: Cc1csc(NC(=O)c2cc(F)cc(C#N)c2)n1
Completion: 92.4

----------
# Measurement description: AUC (0-4 hrs) in Sprague-Dawley rat plasma at 10 mg/kg, ip
# Format: ADME, organism-based
# Design: time < 4 hr, dose 10 mg/kg, route intraperitoneal
Known AUC(0-t) at 4 h of a selection of compounds
The response must be a number in ng·h/mL with no trailing unit.

Chemical structure: N#Cc1cc(F)cc(C(=O)Nc2cccc(Cl)c2)c1
AUC(0-t) at 4 h / ng·h/mL: 1200

Prompt: Provide measured AUC(0-t) at 4 h value, entry: Cc1csc(NC(=O)c2cc(F)cc(C#N)c2)n1
Completion: 17800

----------
# System: Plasma
# Measurement description: Protein binding in human plasma by rapid equilibrium dialysis method
# Type: ADME, cell-free
Quantity kind: PPB (%)
The response must be a number in % with no trailing unit.

Some solved entries appear below for comparison.
Chemical structure: Cc1cccc(NC(=O)c2cc(F)cc(C#N)c2)c1
PPB [%]: 98.3

Chemical structure: Cc1cccc(NC(=O)c2cc(F)cc(C#N)c2)n1
PPB [%]: 89.9

Prompt: Provide measured PPB value, entry: Cc1csc(NC(=O)c2cc(F)cc(C#N)c2)n1
Completion: 98.4

Prompt: Provide measured PPB value, entry: N#Cc1cc(F)cc(C(=O)Nc2cccc(Cl)c2)c1
Completion: 97.1

----------
# Measurement description: Metabolic stability in human liver microsomes assessed as compound remaining at 1 uM after 15 mins in presence of NADPH
# Format: ADME, Microsome
# Test context: read-out: Stability
Quantity kind: remaining at 0.25 h, 1 µM (%)
The response must be a number in % with no trailing unit.

Some solved entries appear below for comparison.
Chemical structure: N#Cc1cc(F)cc(C(=O)Nc2cccc(Cl)c2)c1
Observed result: 18
--
Chemical structure: Cc1csc(NC(=O)c2cc(F)cc(C#N)c2)n1
Observed result: 70.3
--
Chemical structure: Cc1cccc(NC(=O)c2cc(F)cc(C#N)c2)n1
Observed result: 7

Now let's try a different one.
Prompt: Provide measured remaining at 0.25 h, 1 µM value, entry: Cc1cccc(NC(=O)c2cc(F)cc(C#N)c2)c1
Completion: 19.5

----------
# Subject of test: Metabotropic glutamate receptor 5 (Rattus norvegicus) (UniProt P31424)
# Measurement description: Antagonist activity at rat mGlu5 receptor expressed in HEK293A cells assessed as inhibition of glutamate-induced calcium mobilization at 30 uM relative to glutamate
# Type: functional, cell-based
# Test context: HEK293-A
Known %max of a selection of compounds
The response must be a number in % with no trailing unit.

Chemical structure: CCc1cccc(NC(=O)c2cc(F)cc(C#N)c2)c1
%max, %: 2.4

Prompt: Provide measured %max value, entry: N#Cc1cc(F)cc(C(=O)Nc2ccc(F)c(Cl)c2)c1
Completion: 43

Prompt: Provide measured %max value, entry: Cc1nc(NC(=O)c2cc(F)cc(C#N)c2)sc1C
Completion: 2.4

Prompt: Provide measured %max value, entry: N#Cc1cc(F)cc(C(=O)Nc2cccc(Cl)c2F)c1
Completion: 2.5

Prompt: Provide measured %max value, entry: N#Cc1cc(F)cc(C(=O)Nc2ccccc2)c1
Completion: 12.5

Prompt: Provide measured %max value, entry: Cc1csc(NC(=O)c2cc(F)cc(C#N)c2)n1
Completion: 1

Prompt: Provide measured %max value, entry: N#Cc1cc(F)cc(C(=O)Nc2cc(F)cc(Cl)c2)c1
Completion: 38.5

Prompt: Provide measured %max value, entry: Cc1ccnc(NC(=O)c2cc(F)cc(C#N)c2)c1
Completion: 38.6

Prompt: Provide measured %max value, entry: N#Cc1cc(F)cc(C(=O)Nc2nc(C3CC3)cs2)c1
Completion: 1.5

Prompt: Provide measured %max value, entry: N#Cc1cc(F)cc(C(=O)Nc2nccs2)c1
Completion: 37.4

Prompt: Provide measured %max value, entry: CCc1cccc(NC(=O)c2cc(F)cc(C#N)c2)n1
Completion: 1.7

Prompt: Provide measured %max value, entry: N#Cc1cc(F)cc(C(=O)Nc2cccc(Cl)n2)c1
Completion: 2.2
